Reference source for all entries: patent US20190307713A1

- PROCEDURE_DETAILS: in vivo
- RUN_PARAMETERS: male, Wistar, rat, po
OBSERVED_PROPERTY: Tmax
Give the value; after it, write the unit.

Returns the measured Tmax for the input compound. Input: O=C(O)Cc1ccccc1Nc1c(Cl)cccc1Cl [Diclofenac potassium]
15 min
